Measured OD450 of PD-L1 bound, antibody at 0.61 µg/mL values are reported for all entries that follow.
- Experimental system: T1, PD-1 protein (human, UniProt Q15116 25-167, limits assumed)
- T1 construct: also called human PD-1
- T1 sequence (Q15116 25-167 limits assumed): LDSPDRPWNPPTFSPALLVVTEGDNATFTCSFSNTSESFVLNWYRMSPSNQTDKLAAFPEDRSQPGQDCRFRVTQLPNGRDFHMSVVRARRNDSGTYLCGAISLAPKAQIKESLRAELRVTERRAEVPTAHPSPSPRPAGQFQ
- Method notes: blocking ELISA, PD-1 coated, competitor biotin PD-L1
Measurement type: OD450 of PD-L1 bound, antibody at 0.61 µg/mL

Binder: 504#SS13 (Fc fusion, not shown: a dimerising Fc or GST; small tags and cut ends, VHH-FC construct from HEK293 cells) VHH: EVQVVESGGGSVQPGGSLRLSCAASGRGFTEHAMGWYRQSPGKEREFVAGISSGGSTYYADSVKGRFTVSRDSAGNTVALQMDSLKPEDTAVYYCSYKRGRYPDGVSTLEYWGQGTQVTVSS
Value reported: 3.33 OD450
//
Binder: 504#SS22 (Fc fusion, not shown: a dimerising Fc or GST; small tags and cut ends, VHH-FC construct from HEK293 cells) VHH: QVQLVETGGGLVQAGGSLRLSCAASGRTFSSYAMGWFRQAPGKERDFVAGISGSGGNTPYAESVKGRFTISRDNAKNTVALQMNSLKPEDTAVYYCAAKFTSSSFYYRSPREYSSWGQGTQVTVSS
Value reported: 3.34 OD450
//
Binder: 504#SS25 (Fc fusion, not shown: a dimerising Fc or GST; small tags and cut ends, VHH-FC construct from HEK293 cells) VHH: QVQLVETGGGLVQAGGSLRLSCAASGDTIFISSMAWYRQAPGKERELVASIDSDDIIYYAATVKGRFTISRDNDKPTMYLQMDTLQPEDTAVYYCRVESQDYYFDYDRDSWGQGTQVTVSS
Value reported: 3.3 OD450
//
Binder: 504#SS9 (Fc fusion, VHH-FC construct from HEK293 cells; not shown: The (G4S)3 linker leading to it is left out with it) VHH: EVQLQESGGGLVQAGGSLRLSCAASGRSFSGYAMAWFRQAPGKEREFVAAVNWNGGSTYYADSVKGRFTISRDNAKDTVYLQMNSLKPEDTAVYYCNARPTFGAYYSDYKSGVDYWGQGTQVTVSS
Value reported: 3.36 OD450

Origin of the recorded values: patent US20230002757A1
